Provide the recorded GI50 for the entries that follow.
# Test system: M14
# protocol: NCI tumour cell line growth inhibition, 48 h
Active and inactive are the calls of the source. Cut-off read from the data, not from the text of the source: active = GI50 up to about 1.1 µM and inactive = higher.

Record excerpt, results attached:
COC1(OC)C2(Cl)C(Cl)=C(Cl)C1(Cl)C1COCC12 (stereo not given) ... > 100 µM (inactive)
COc1ccc(/C=C2\CCC(C)(CN(C)C)C2=O)cc1OC (stereo not given) ... > 100 µM (inactive)
Cc1ccc(C)c(NC2=NC(=O)C(CC(=O)Nc3ccc(Cl)cc3Cl)S2)c1 (stereo not given) ... > 100 µM (inactive)

List the reported GI50 of each compound below.
1. Cc1cn(C2CC(N(O)C(N)=O)C(CO)O2)c(=O)[nH]c1=O (stereo not given)
2. CC(C)COC(=O)N1N=NC2C3CC(=O)C(O3)C21 (stereo not given)
3. CCCSc1ccc2[nH]c(N3C(=O)/C(=C/c4ccc(SC)cc4)N=C3c3ccccc3)cc2c1

["> 100 µM (inactive)", "> 100 µM (inactive)", "21.4 µM (inactive)"]

# per-item lookup of GI50; items listed below
1. CC(=O)OCc1nnn2c1C(OC(C)=O)CC2 (stereo not given)
2. CN1CCN(CN2C(=O)C3C4C=CC(C3C2=O)C2C3C(=O)N(CN5CCN(C)CC5)C(=O)C3C42)CC1 (stereo not given)
3. Cc1ccc(S(=O)OCc2c(C)c(C)c(COS(=O)c3ccc(C)cc3)c(C)c2C)cc1 (stereo not given)
4. Cc1cn(CCCCC2=NCCCN2)c(=O)[nH]c1=O

["> 100 µM (inactive)", "16.4 µM (inactive)", "> 100 µM (inactive)", "> 25.2 µM (inactive)"]

From: ChEMBL document CHEMBL1201862
